Source: ChEMBL document CHEMBL5038577

- assayNotes: Intrinsic clearance in human liver microsomes
- Format: ADME, Microsome
- recordedConditions: read-out: CLH
quantityName: CLint scaled (mL/min/kg)
Numbers only, in mL/min/kg.

input: CLint scaled for "CC(=O)N1CCc2nc(N3CCC(Oc4ccc(F)cc4F)CC3)c(N[C@@H]3CCOC3)nc2C1" ?
output: 62

###

- Species: Homo sapiens
- assayNotes: Selectivity for human GPR6 over human GRP12 assessed as fold change
Can you tell me fold change (FC) for the items I'm about to list?
Numbers only.

Example results:
{"columns": ["chemicalStructure", "fold change (FC)"],
 "data": [
  ["Fc1ccc(CN2CCN(c3nc4cnccc4nc3NC3CC3)CC2)c(F)c1", 80],
  ["CC(C)Nc1nc2cc(C#N)ncc2nc1N1CCC(Oc2ccc(F)cc2F)CC1", 13],
  ["CC(C)Nc1nc2ccncc2nc1N1CCN(Cc2ccc(F)cc2F)CC1", 14],
  ["Cc1cc2nc(NC3CC3)c(N3CCN(Cc4ccc(F)cc4F)CC3)nc2cn1", 78],
  ["Cc1cc2nc(NC(C)C)c(N3CCN(Cc4ccc(F)cc4F)CC3)nc2cn1", 19],
  ["CCC(=O)N1CCc2nc(N3CCN(Cc4ccc(F)cc4F)CC3)c(NC(C)C)nc2C1", 16]
]}

Dear colleague, could you send me fold change (FC) for each of the items below? Thanks.
1. Cc1cc2nc(NC(C)C)c(N3CCC(Oc4ccc(F)cc4F)CC3)nc2cn1
2. Cc1cc2nc(N3CCC(Oc4ccc(F)cc4F)CC3)c(NC(C)C)nc2cn1
3. Cc1cc2nc(N3CCC(Oc4ccc(F)cc4F)CC3)c(NC3CC3)nc2cn1
4. CC(C)Nc1nc2c(nc1N1CCC(Oc3ccc(F)cc3F)CC1)CCN(C)C2
5. Cc1cc2nc(NC3CC3)c(N3CCC(Oc4ccc(F)cc4F)CC3)nc2cn1

output:
[27, 47, 105, 69, 105]

input: fold change (FC) for "Fc1ccc(Cl)cc1CN1CCN(c2nc3cnccc3nc2NC2CC2)CC1" ?
output: 15
